# PROTOCOL_DETAILS: Rat 28-day GLP repeat dose PO study (toxicokinetics)
# Format: in vivo
# MEASUREMENT_CONTEXT: female, rat, in vivo, po, 1000 mg/kg, Day 28, F, 1000 mg/kg PO; read-out: CL/F (CLss/F) (converted)
Counter-ions that a name gives are not always drawn.
MEASUREMENT_NAME: CL/F (mL/min/kg)
# number only, unit mL/min/kg dropped from output

Input line: Returns the measured CL/F for the input compound. Input: CC1(C)SC(Nc2ccccc2O)=N[C@@H]1C(=O)O [Compound 1, mono-hydrochloride]
Output line: 22.7

----------
# PROTOCOL_DETAILS: Rat 28-day GLP repeat dose PO study (toxicokinetics)
# Type: in vivo
# MEASUREMENT_CONTEXT: male, rat, in vivo, po, 500 mg/kg, Day 1, M, 500 mg/kg PO; read-out: tmax
Structures can show the parent of a compound that is named as a salt.
MEASUREMENT_NAME: Tmax (h)
# number only, unit h dropped from output

Input line: Returns the measured Tmax for the input compound. Input: CC1(C)SC(Nc2ccccc2O)=N[C@@H]1C(=O)O [Compound 1, mono-hydrochloride]
Output line: 1
